The reported numbers originate from ChEMBL document CHEMBL4513216.

assay text: Toxicity liver stage against HepG2, at 10uM
Type: cell-based
Parameters: test concentration 10 uM, cell line HepG2-A16-CD81EGFP
test context: human, HepG2-A16-CD81EGFP cells; read-out: INHIBITION
value type: cytotoxicity at 10 µM (%)
Answers are plain numbers, in %.

In the examples that follow, each entry is paired with its recorded cytotoxicity at 10 µM.
CS(=O)(=O)c1ccc(CN2CCCCC2c2cccc(F)c2)cc1 (stereo unspecified): -17.4
CCc1cnc(CN(C)C2CCN(CC3CCN(C(C)=O)CC3)C2)o1 (stereo unspecified): 4.84

# map each compound to its cytotoxicity at 10 µM
1. COc1ccc(CNC(=O)CCSCc2csc(C)n2)cn1
2. CC(C)(C)c1cn(C[C@H]2CC3CCN2C[C@@H]3C(=O)N2CCOCC2)nn1 (stereo partly specified)
3. COCCC1CCN([C@@H]2c3ccccc3C3(CCNCC3)[C@H]2O)CC1
4. Cc1nc(C)c(CN2CCOC[C@H](Oc3ccc(S(C)(=O)=O)cc3)C2)s1

[-21.4, -3.37, 1.35, 5.25]

====

assay text: Toxicity liver stage against HepG2, at 10uM
Type: cell-based
Design: test concentration 10 uM, cell line HepG2-A16-CD81EGFP
test context: human, HepG2-A16-CD81EGFP cells; read-out: INHIBITION
value type: cytotoxicity at 10 µM (%)
Answers are plain numbers, in %.

In the examples that follow, each entry is paired with its recorded cytotoxicity at 10 µM.
C=Cn1cc(CN2CCN(CC3(c4ccccc4)CC3)CC2)c(C)n1: 1.78
COc1ccc(CN2CCc3ncnc(OC(C)C)c3CC2)cc1: -1.99
Cc1noc(C)c1CN1CC[C@@H]2O[C@H](COCC3CC3)CC[C@@H]21: 5.65

# map each compound to its cytotoxicity at 10 µM
1. CC[C@H]1CN(C(=O)C2CC2)CC[C@H]1CC(=O)NCCN1CCOCC1
2. c1cc(-c2cscn2)cc(N2CCC(NCCc3cccs3)CC2)c1
3. CCCS(=O)(=O)NCc1cccnc1OCC
4. COc1ccc(C(=O)Nc2cnn(CCN3CCOCC3)c2)c(O)c1
5. CCC(CO)NCc1ccc(-c2ccc(Br)cc2)o1 (configuration not stated)
6. Cc1nn(C)c(Cl)c1C(=O)NCC(c1ccsc1)N(C)C (configuration not stated)
7. COc1ccc(OC)c(C(O)CN2CCN(c3cccc(C)c3)CC2)c1 (configuration not stated)
8. CC(Nc1cccc(Oc2ccc(C#N)cn2)c1)C(=O)NC1CC1 (configuration not stated)

-7.3
8.65
-7.87
-3.92
-5
-10
6.69
12.8

====

assay text: Toxicity liver stage against HepG2, at 10uM
Type: cell-based
Design: test concentration 10 uM, cell line HepG2-A16-CD81EGFP
test context: human, HepG2-A16-CD81EGFP cells; read-out: INHIBITION
value type: cytotoxicity at 10 µM (%)
Answers are plain numbers, in %.

In the examples that follow, each entry is paired with its recorded cytotoxicity at 10 µM.
COC[C@]12COC[C@H]1CN(Cc1cccnc1OC)C2: -9.83
CC(=O)N1CC(=O)N(c2ccccc2)CC12CCN(Cc1ccoc1)C2 (stereo not given): -1.51
COCc1cc(N2CCN(Cc3ccncc3)CC2)n2nccc2n1: -6.32
CCOCCNC(=O)Cc1cccc(I)c1: 9.62
O=C1CCN(C(=O)NCc2ccccc2Oc2ccccc2)CCN1: 6.03

# map each compound to its cytotoxicity at 10 µM
1. CC(C)N1CCc2onc(Cn3cccc3)c2C1
2. Cc1ccc(CN2CCC3(CCN(c4cnn(C)c4)C3=O)C2)s1 (stereo not given)
3. c1ccc(CN2Cc3nccn3CC(Cn3cccn3)C2)nc1 (stereo not given)
4. N#Cc1cccc(S(=O)(=O)NC(=O)COC2CCCC2)c1
5. CCOC(=O)c1nc(CC(=O)Nc2ccc3cc[nH]c3c2)no1
6. CCC=C(C)C(=O)NCCc1csc(N2CCCC2)n1
7. Cc1ncc2c(n1)CN(CC(=O)NCCOc1ccccc1)CC2
8. CC1CN(C)CCN1C(=O)Cc1cc(Cl)c2c(c1)OCCO2 (stereo not given)

[7.55, -70, -105, -4.79, 7.12, 18.7, -8.66, -3.47]

# map each compound to its cytotoxicity at 10 µM
1. CN(Cc1cc(Br)c2c(c1)OCO2)Cc1cscn1
2. CCN1CC2(CC1=O)CN(C(C)=O)CCN(S(C)(=O)=O)C2 (stereo not given)

-12.2
0.38

# map each compound to its cytotoxicity at 10 µM
1. Cc1cc(C(=O)NCc2cccnc2OC(C)C)no1
2. Cc1cc(C[C@@H]2COC[C@H]2NCc2ccc(C(F)(F)F)cc2)on1
3. CN1CCCC1CNC(=O)c1nnn(-c2ccc(F)cc2)c1C1CC1 (stereo not given)
4. CC(C)C(=O)N1CCCC2(C1)CN(c1nncs1)CCO2 (stereo not given)
5. O=C(C1CCCN(C2CCOCC2)C1)N1Cc2ccccc2C1 (stereo not given)

1. -7.37
2. -18.7
3. -15.9
4. -104
5. 2.49

# map each compound to its cytotoxicity at 10 µM
1. COc1cccc(C(=O)N2CCN(C(=O)CCCc3cn[nH]c3)CC2)c1
2. CCc1nc(CC(=O)N2CCN(c3cnccn3)CC2)cs1
3. O=C(COc1cccc(Cl)c1)N1CCOCC(O)(CN2CCCC2)C1 (stereo not given)
4. Oc1ccccc1CN1C[C@H](O)C[C@H]1c1nc(Cc2ccccc2)no1
5. CCc1cc(=O)[nH]c2nnc(SCC(=O)OC)n12

1. -1.3
2. 1.97
3. -4.68
4. -4.82
5. -16.6

====

assay text: Toxicity liver stage against HepG2, at 10uM
Type: cell-based
Design: test concentration 10 uM, cell line HepG2-A16-CD81EGFP
test context: human, HepG2-A16-CD81EGFP cells; read-out: INHIBITION
value type: cytotoxicity at 10 µM (%)
One number for each entry, in %.

COC(=O)CNC(=O)C1(N(C)Cc2ccccc2)Cc2ccccc2C1: 3.82

# map each compound to its cytotoxicity at 10 µM
1. CC(=O)N(C)c1nc(CN2CCCCC2Cn2cncn2)cs1 (stereo not drawn)
2. COCCO[C@H]1CCN(Cc2ccsc2)[C@H]1Cc1cccnc1
3. CC(C(=O)NCc1cccc(N2CCCC2=O)c1)S(C)(=O)=O (stereo not drawn)
4. CC(Cn1cccn1)NCc1csc(COc2ccc(F)cc2)n1 (stereo not drawn)
5. Cn1ncc(C(=O)O)c1C(=O)Nc1nc2ccc(Br)cc2s1
6. Cc1cc(C[C@@H]2COC[C@@H]2NC(=O)CN2CCCN(C)CC2)on1
7. O=C(NCCCc1ccc(O)cc1)C1(O)Cc2ccccc2C1
8. c1ccc(Cn2ccnc2CNC2CCCOc3ccccc32)cc1 (stereo not drawn)

1: -5.79; 2: -2.57; 3: 2.66; 4: 5.84; 5: 12.5; 6: -15; 7: 1.6; 8: -4.34

# map each compound to its cytotoxicity at 10 µM
1. CCn1ccnc1CN1CCCN(C(=O)c2cnc(C)cn2)CC1
2. COCC(=O)N1CCC(c2cc(N(C)C)cc(C)n2)CC1
3. CCNc1cc2c(nn1)CCN(C(=O)Cc1c(C)nn(C)c1C)C2
4. O=C(NCC(O)c1ccc(F)cc1)C1CCN(C2CCCCC2)CC1 (stereo not drawn)

-12.3
8.6
-8.25
5.67

# map each compound to its cytotoxicity at 10 µM
1. O=C(c1ccccn1)N1CCC2(CC1)CN(c1cncnc1)C(=O)CO2
2. Cc1cccc(NC2CCN(C(=O)Nc3cc(F)ccc3F)CC2)n1
3. CN(Cc1nc(C2CC2)no1)C1CCCN(c2cccnn2)C1 (stereo not drawn)
4. CN(Cc1n[nH]c2c1CCCC2)c1cc(N2CCOCC2)nc(N)n1
5. c1cc(CN2CCO[C@@H]3CNC[C@@H]32)co1
6. CCN(CC1CCOC1)C(=O)c1cc(F)ccc1N1CCN(C)CC1 (stereo not drawn)
7. COc1c(C2CCCN2CC(=O)Nc2nccs2)c(C)nn1C (stereo not drawn)
8. CC1CN(Cc2ccccc2)CCCN1CCS(C)(=O)=O (stereo not drawn)

[-67, -10.7, -6.62, -7.7, 6.71, -7.68, -2.38, -1.4]

# map each compound to its cytotoxicity at 10 µM
1. Cc1ccc(OCCN2CCN(Cc3cnn(CCO)c3)CC2)cc1
2. Fc1ccc(CNCC2Cn3nncc3CO2)cc1 (stereo not drawn)
3. COCCN1C(=O)C2(CCC(C(=O)Nc3cccc(C)c3)CC2)N=C1C (stereo not drawn)
4. CN(CC(=O)Nc1cc(-c2cc(Cl)cc(Cl)c2)[nH]n1)S(C)(=O)=O
5. COc1ccc(C2(C(=O)N3CC[C@@]4(O)CCNC[C@H]4C3)CCCC2)cc1

1. -2.4
2. 7.31
3. 9.76
4. 6.72
5. 6.03

# map each compound to its cytotoxicity at 10 µM
1. O=C(NCCN1CCOCC1)N(CCCO)C1CCCc2ccccc21 (stereo not drawn)
2. COc1ccc(CN2CCO[C@H]3[C@H](Oc4ccccn4)CC[C@@H]32)cc1
3. COc1ccc(C(C(=O)O)N(C)CCN2CCCC2)cc1F (stereo not drawn)
4. CCc1nc(C(=O)N2CCCC2)nn1-c1c(Cl)cccc1Cl
5. CCC(CC)CS(=O)(=O)NC(=O)C1CCC1
6. CC1=C(C(=O)NCCc2n[nH]c3c2CCCC3)C(C)NC(=O)N1 (stereo not drawn)
7. Cc1csc(CN2CCC[C@]3(C[C@@H](Oc4ccccn4)CO3)C2)n1

1: -9.69; 2: 21.5; 3: 1.38; 4: -2.04; 5: -6.8; 6: -3.51; 7: -141

# map each compound to its cytotoxicity at 10 µM
1. COc1ccccc1N1CCN(CC[C@H](O)c2ccccc2)CC1=O
2. CC(C)n1nc2c(cc1=O)CN(c1nc3ccccc3s1)CC2
3. CC(NC(=O)CCCOc1cccc(F)c1)c1ccncc1 (stereo not drawn)
4. CCN(CC)S(=O)(=O)c1cc2c3c(c1)c(C)cc(=O)n3CCC2
5. CC(C)c1cc(NC(=O)CN2CCCC2c2noc(C(C)C)n2)on1 (stereo not drawn)

[-0.081, -1.99, -3.6, 2.85, -3.84]

# map each compound to its cytotoxicity at 10 µM
1. O=C(NCc1nccs1)N1CCOC(c2ccccc2Cl)C1 (stereo not drawn)
2. CCN(CC)C(=O)c1ccc(-c2ccsc2)nc1C
3. Cn1ccnc1SCC(=O)NCc1ccc2c(c1)CCC(=O)N2
4. CCn1cc(CN2CCCN(C(=O)CCc3ccncc3)CC2)cn1
5. c1cnc(NCc2nnn3c2CN(Cc2ccco2)CCC3)nc1
6. Cc1nc(C(C)C)sc1C(=O)N1CCN(C2CN3CCC2CC3)CC1 (stereo not drawn)

-3.67
-13.4
7.66
-11.1
9.08
3.79

# map each compound to its cytotoxicity at 10 µM
1. Cc1ccc(S(=O)(=O)NCCc2ccoc2)s1
2. CNc1nc(C2CCCN2C(C)=O)nc2c1CN(C1CCCC1)CC2 (stereo not drawn)

1. 2.69
2. -9.44

# map each compound to its cytotoxicity at 10 µM
1. COCCc1noc(CN2CCCC2Cn2cccn2)n1 (stereo not drawn)
2. CCOCc1cccc(S(=O)(=O)N2CCSCC2)c1

-0.206
1.26
